The entries below are paired with their reported inhibition.
Study system: Dual specificity protein kinase TTK (Homo sapiens) (UniProt P33981);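 also: reported figures are mean TTK inhibition at 1 µM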
Sequence (whole entry): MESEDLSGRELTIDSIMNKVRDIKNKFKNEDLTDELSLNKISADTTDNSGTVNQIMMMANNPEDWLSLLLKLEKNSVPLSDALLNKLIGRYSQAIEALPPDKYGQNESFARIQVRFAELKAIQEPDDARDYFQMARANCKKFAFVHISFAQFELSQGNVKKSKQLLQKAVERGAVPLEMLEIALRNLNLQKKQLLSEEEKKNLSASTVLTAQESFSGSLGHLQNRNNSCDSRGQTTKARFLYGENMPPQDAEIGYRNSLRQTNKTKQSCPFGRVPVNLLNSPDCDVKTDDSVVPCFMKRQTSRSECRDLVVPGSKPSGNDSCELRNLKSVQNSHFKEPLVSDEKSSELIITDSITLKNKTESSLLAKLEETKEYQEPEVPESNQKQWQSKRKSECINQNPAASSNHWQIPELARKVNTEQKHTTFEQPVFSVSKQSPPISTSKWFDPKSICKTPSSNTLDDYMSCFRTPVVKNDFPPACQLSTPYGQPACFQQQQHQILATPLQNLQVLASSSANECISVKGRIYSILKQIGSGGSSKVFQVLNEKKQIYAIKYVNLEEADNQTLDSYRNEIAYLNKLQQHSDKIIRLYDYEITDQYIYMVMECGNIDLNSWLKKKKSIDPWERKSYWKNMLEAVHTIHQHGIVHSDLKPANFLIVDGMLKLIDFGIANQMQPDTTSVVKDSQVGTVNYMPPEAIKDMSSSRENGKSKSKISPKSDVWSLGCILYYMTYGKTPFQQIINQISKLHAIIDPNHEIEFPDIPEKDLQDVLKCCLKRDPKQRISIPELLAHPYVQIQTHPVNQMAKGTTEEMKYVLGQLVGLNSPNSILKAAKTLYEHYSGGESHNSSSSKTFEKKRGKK
Test parameters: at 1 µM
Note: unit % is implicit; provide only the numeric part.

[
  {
    "Molecule": "COc1cccc(-n2nc(C)c3c(N/N=C(\\C)c4ccncc4)ncnc32)c1",
    "Study system": "Dual specificity protein kinase TTK (Homo sapiens) (UniProt P33981)",
    "inhibition [%]": 2.24
  },
  {
    "Molecule": "CN(C)CCCn1c(-c2nonc2N)nc2cnccc21",
    "Study system": "Dual specificity protein kinase TTK (Homo sapiens) (UniProt P33981)",
    "inhibition [%]": 0.63
  },
  {
    "Molecule": "CCn1c(-c2nonc2N)nc2ccc(F)cc21",
    "Study system": "Dual specificity protein kinase TTK (Homo sapiens) (UniProt P33981)",
    "inhibition [%]": 11.6
  },
  {
    "Molecule": "NC(=O)c1cccc(Nc2nccc(Nc3cccc(F)c3)n2)c1",
    "Study system": "Dual specificity protein kinase TTK (Homo sapiens) (UniProt P33981)",
    "inhibition [%]": 6.29
  },
  {
    "Molecule": "NS(=O)(=O)c1cccc(-c2cc3ccncc3cc2OCc2ccccc2)c1",
    "Study system": "Dual specificity protein kinase TTK (Homo sapiens) (UniProt P33981)",
    "inhibition [%]": 11.2
  }
]

query: Query: inhibition; subject: COc1cc2ncnc(Nc3ccc4c(cnn4Cc4ccccc4)c3)c2cc1OC
result: 13.2

query: Would you kindly share the measured inhibition for Cc1ccc2c(-c3ccnc(Nc4cccc(C(F)(F)F)c4)n3)c(-c3ccccc3)nn2n1 ?
result: 10.6

====

Study system: ALK tyrosine kinase receptor (Homo sapiens) (UniProt Q9UM73)
Sequence (Q9UM73 19-1620 limits assumed): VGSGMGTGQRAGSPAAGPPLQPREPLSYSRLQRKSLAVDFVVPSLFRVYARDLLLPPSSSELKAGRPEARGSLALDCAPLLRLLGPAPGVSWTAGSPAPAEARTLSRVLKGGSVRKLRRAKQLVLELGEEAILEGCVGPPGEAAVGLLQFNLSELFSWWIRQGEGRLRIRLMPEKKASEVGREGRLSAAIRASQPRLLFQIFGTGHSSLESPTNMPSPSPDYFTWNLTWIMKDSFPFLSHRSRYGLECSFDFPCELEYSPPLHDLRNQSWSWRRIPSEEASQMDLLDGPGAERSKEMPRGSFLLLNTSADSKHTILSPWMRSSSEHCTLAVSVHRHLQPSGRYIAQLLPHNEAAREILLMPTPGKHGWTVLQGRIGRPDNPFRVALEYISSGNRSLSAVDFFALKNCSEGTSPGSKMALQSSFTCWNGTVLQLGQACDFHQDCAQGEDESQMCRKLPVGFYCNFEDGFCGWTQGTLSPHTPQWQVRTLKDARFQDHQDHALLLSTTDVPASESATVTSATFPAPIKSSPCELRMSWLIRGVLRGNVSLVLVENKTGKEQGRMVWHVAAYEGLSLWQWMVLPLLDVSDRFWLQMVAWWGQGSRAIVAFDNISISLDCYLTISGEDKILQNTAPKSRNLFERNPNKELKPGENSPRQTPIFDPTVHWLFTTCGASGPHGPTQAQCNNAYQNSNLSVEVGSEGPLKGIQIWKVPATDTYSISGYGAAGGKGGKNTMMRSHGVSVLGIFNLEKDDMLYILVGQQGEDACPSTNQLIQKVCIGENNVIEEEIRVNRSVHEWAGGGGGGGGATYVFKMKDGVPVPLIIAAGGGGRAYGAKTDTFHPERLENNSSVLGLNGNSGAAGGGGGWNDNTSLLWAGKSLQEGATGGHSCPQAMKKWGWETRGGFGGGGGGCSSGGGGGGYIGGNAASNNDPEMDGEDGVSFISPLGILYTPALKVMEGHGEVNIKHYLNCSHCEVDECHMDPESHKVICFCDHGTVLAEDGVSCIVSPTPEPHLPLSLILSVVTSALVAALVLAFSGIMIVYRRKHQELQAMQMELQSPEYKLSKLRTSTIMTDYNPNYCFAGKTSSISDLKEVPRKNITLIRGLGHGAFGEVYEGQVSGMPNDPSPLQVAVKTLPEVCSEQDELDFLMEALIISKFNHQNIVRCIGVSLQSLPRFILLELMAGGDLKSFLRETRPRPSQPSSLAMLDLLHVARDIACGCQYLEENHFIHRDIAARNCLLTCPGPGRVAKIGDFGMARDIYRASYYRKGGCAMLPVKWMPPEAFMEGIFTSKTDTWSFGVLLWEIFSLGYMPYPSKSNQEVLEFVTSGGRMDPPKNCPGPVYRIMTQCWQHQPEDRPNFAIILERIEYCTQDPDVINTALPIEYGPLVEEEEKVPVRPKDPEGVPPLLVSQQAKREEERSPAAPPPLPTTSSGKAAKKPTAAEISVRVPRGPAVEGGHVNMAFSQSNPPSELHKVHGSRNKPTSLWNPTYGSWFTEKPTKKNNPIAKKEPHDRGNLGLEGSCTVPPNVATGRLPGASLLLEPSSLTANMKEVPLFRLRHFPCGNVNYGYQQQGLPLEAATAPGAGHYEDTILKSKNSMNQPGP
Test parameters: at 0.1 µM
Description: GSK_PKIS: ALK mean inhibition at 0.1 uM [Nanosyn]
Attribute measured: inhibition (%)
Give just the number in %; leave the unit off.

Use the examples below as a reference point.
[
  {
    "Compound": "Cc1ccc2c(c1)/C(=N/Nc1ccc(S(N)(=O)=O)cc1)C(=O)N2",
    "Study system": "ALK tyrosine kinase receptor (Homo sapiens) (UniProt Q9UM73)",
    "U": "%",
    "inhibition": 0.89
  },
  {
    "Compound": "COC(=O)c1cncc(/C=C/c2c(C)cc(O)cc2C)c1",
    "Study system": "ALK tyrosine kinase receptor (Homo sapiens) (UniProt Q9UM73)",
    "U": "%",
    "inhibition": 2.92
  },
  {
    "Compound": "NS(=O)(=O)c1cccc(-c2cc3ccncc3cc2OCc2ccccc2)c1",
    "Study system": "ALK tyrosine kinase receptor (Homo sapiens) (UniProt Q9UM73)",
    "U": "%",
    "inhibition": 2.82
  },
  {
    "Compound": "COc1cc2ncn(-c3cc(OCc4ccccc4S(C)(=O)=O)c(C#N)s3)c2cc1OC",
    "Study system": "ALK tyrosine kinase receptor (Homo sapiens) (UniProt Q9UM73)",
    "U": "%",
    "inhibition": 4.25
  },
  {
    "Compound": "CCCN1CCCC(c2ccc(Nc3nc(Nc4cc(F)ccc4C(N)=O)c4cc[nH]c4n3)c(OC)c2)C1 (stereo not given)",
    "Study system": "ALK tyrosine kinase receptor (Homo sapiens) (UniProt Q9UM73)",
    "U": "%",
    "inhibition": 98.2
  }
]

query: Can you look up the measured inhibition of COc1ccc2ncnc(Nc3ccc(OCc4ccccc4)cc3)c2c1 for me?
result: 0.66

query: Give the measured inhibition of Cc1cc(-c2ccccn2)cc(C)c1/C=C/c1cncc(-c2nn[nH]n2)c1 .
result: 3.44

query: Item under review: CS(=O)(=O)Nc1cccc(-c2ccc3c(NC(=O)C4CC4)n[nH]c3c2)c1 . Reported inhibition?
result: 0.61

query: Please report the recorded inhibition for CCOc1nccc2c1nc(-c1nonc1N)n2CC .
result: 2.69

query: Can you look up the measured inhibition of Nc1ccc(C#Cc2cncnc2Nc2ccc(OCc3cccc(F)c3)c(Cl)c2)cc1 for me?
result: 3.7

====

Study system: Inhibitor of nuclear factor kappa-B kinase subunit alpha (Homo sapiens) (UniProt O15111);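 also: mean percent inhibition from GSK PKIS profiling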
Sequence (whole entry): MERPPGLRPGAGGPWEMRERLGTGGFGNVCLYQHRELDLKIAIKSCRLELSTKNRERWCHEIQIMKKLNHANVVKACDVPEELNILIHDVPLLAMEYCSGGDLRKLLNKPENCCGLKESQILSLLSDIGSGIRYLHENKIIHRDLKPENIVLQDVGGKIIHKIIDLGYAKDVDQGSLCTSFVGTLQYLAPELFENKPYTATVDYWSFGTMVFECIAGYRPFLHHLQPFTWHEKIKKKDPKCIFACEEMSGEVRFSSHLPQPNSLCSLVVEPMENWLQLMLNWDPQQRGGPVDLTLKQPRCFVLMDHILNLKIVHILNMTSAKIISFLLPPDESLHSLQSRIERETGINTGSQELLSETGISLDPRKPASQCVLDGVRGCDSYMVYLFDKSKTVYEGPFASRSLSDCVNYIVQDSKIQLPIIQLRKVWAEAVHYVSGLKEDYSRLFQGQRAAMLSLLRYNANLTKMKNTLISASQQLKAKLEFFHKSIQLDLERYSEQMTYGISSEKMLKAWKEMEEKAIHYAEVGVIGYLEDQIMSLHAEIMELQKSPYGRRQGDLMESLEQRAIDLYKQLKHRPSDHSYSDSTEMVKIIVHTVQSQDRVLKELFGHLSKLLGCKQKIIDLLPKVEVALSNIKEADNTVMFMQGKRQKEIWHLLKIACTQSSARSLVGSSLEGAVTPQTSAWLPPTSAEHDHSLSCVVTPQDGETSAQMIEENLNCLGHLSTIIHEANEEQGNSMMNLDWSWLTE
Test parameters: at 0.1 µM
Attribute measured: inhibition (%)
API: value field is a number in %; no unit string.

query: What does the data say about its inhibition? Entry: CS(=O)(=O)Nc1cccc(-c2ccc3c(NC(=O)C4CC4)n[nH]c3c2)c1
result: -2.77

query: So what does the record say about inhibition for Cc1ccc2c(c1)/C(=N/Nc1ccc(S(N)(=O)=O)cc1)C(=O)N2 ?
result: 8.72

query: Requested field: inhibition. Item: C[C@@H](Oc1cc(-n2cnc3ccc(OCC4CCN(C)CC4)cc32)sc1C(N)=O)c1ccccc1C(F)(F)F
result: -3.27

query: Bench note: what inhibition did O=C1Nc2ccccc2/C1=C/Nc1ccc2[nH]c(=O)[nH]c2c1 show?
result: 12.9

query: Quick check: inhibition of Cc1ccc(NC(=O)CC2CC2)cc1-c1ccc(C(=O)NCC2CC2)cc1 ?
result: 0.25

query: Name the reported inhibition value associated with the compound NS(=O)(=O)c1ccc(-c2cc3ccncc3cc2OCc2ccccc2)cc1
result: 0.99

====

Study system: Cyclin-dependent kinase 6 (Homo sapiens)
Test parameters: at 0.1 µM
Attribute measured: inhibition (%)
The reply should be a number in %, with the unit left off.

Recorded results for 2 compounds are shown here.
[
  {
    "Molecule": "O=C1Nc2ccccc2/C1=C/Nc1ccc2[nH]c(=O)[nH]c2c1",
    "inhibition / %": 18.1
  },
  {
    "Molecule": "COc1ccc2ncnc(Nc3ccc(OCc4ccccc4)cc3)c2c1",
    "inhibition / %": -0.31
  }
]

query: Test system Cyclin-dependent kinase 6 (Homo sapiens); read-out inhibition; what value for O=S(=O)(CCOCc1ccc(-c2ccc3ncnc(Nc4ccc(OCc5cccc(F)c5)c(Cl)c4)c3c2)o1)c1ccccc1 ?
result: 0.17

query: Request - read-out inhibition | tested on Cyclin-dependent kinase 6 (Homo sapiens) | compound CCn1c(-c2nonc2N)nc2ccc(F)cc21;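 also: mean percent inhibition of CDK6 complexed with cyclin D3, from the GSK PKIS kinase inhibitor screen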
result: 1.33

Measured values drawn from ChEMBL document CHEMBL1961873 for this set.
